Target: Protein arginine N-methyltransferase 1 (Homo sapiens, UniProt Q99873)
property: IC50

Query: Please tell me: IC50 of N=C(N)c1ccc(Nc2ncnc(Nc3ccc(C(N)=O)cc3)c2[N+](=O)[O-])cc1 , system Protein arginine N-methyltransferase 1 (Homo sapiens, UniProt Q99873)?
Response: 9.3 µM

----------
Tested on: SH-SY5Y
Test: Cytotoxicity against human SH-SY5Y cells by MTT assay
Format: functional, cell-based
Overview of recorded IC50 for various compounds
Report the figure in µM without appending any unit label.

Observe how each entry below is paired with its result.
N=C(N)c1ccc(Nc2ncnc(Nc3ccc(S(N)(=O)=O)cc3)c2[N+](=O)[O-])cc1 92.4
N#Cc1ccc(Nc2ncnc(Nc3ccc(C(=N)N)cc3)c2[N+](=O)[O-])cc1 11.4

// moving on: another record for IC50
Query: Please tell me: IC50 of COc1cc(Nc2ncnc(Nc3ccc(C(=N)N)cc3)c2[N+](=O)[O-])cc(OC)c1OC , system SH-SY5Y?
Response: 16.2

----------
Overview of recorded inhibition for various molecules
Molecular target: Protein arginine N-methyltransferase 1 (Homo sapiens, UniProt Q99873)
Assay: Inhibition of PRMT1 (unknown origin) using biotinylated histone H4-derived peptide as substrate at 50 uM after 60 mins by AlphaLISA assay
Sequence (Q99873 whole entry, looked up): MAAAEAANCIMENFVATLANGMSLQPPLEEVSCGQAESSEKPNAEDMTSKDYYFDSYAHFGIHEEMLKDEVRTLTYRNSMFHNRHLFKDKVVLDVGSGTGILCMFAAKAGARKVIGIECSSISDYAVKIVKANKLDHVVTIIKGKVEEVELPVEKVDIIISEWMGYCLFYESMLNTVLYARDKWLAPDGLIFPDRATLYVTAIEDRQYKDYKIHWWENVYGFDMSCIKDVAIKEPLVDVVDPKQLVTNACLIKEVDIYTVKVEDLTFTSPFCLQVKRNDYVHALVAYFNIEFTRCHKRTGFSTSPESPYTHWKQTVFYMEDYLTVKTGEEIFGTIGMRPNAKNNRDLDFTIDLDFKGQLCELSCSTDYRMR
Report the figure in % without appending any unit label.

Observe how each entry below is paired with its result.
N=C(N)c1ccc(Nc2ncnc(NCC(N)=O)c2[N+](=O)[O-])cc1 49
N=C(N)c1ccc(Nc2ncnc(Nc3ccccc3)c2[N+](=O)[O-])cc1 9
N=C(N)c1ccc(Nc2ncnc(Nc3ccc(S(N)(=O)=O)cc3)c2[N+](=O)[O-])cc1 28

Query: inhibition; subject: N=C(N)c1ccc(Nc2ncnc(Nc3ccc(N)cc3)c2[N+](=O)[O-])cc1
Response: 28

Query: Item: COc1cc(Nc2ncnc(Nc3ccc(C(=N)N)cc3)c2[N+](=O)[O-])cc(OC)c1OC
Response: 44

----------
Experiment: Cytotoxicity against human T24 cells by MTT assay
Type: functional, cell-based
Conditions: T-24
Overview of recorded IC50 for various compounds
Report the figure in µM without appending any unit label.

Observe how each entry below is paired with its result.
COc1cc(Nc2ncnc(Nc3ccc(C(=N)N)cc3)c2[N+](=O)[O-])cc(OC)c1OC 18.3
N=C(N)c1ccc(Nc2ncnc(Nc3ccc(S(N)(=O)=O)cc3)c2[N+](=O)[O-])cc1 86.8

// moving on: another record for IC50
Query: IC50; subject: N#Cc1ccc(Nc2ncnc(Nc3ccc(C(=N)N)cc3)c2[N+](=O)[O-])cc1
Response: 13.1

----------
Molecular target: Histone-arginine methyltransferase CARM1 (Homo sapiens, UniProt Q86X55)
Sequence (Q86X55 whole entry): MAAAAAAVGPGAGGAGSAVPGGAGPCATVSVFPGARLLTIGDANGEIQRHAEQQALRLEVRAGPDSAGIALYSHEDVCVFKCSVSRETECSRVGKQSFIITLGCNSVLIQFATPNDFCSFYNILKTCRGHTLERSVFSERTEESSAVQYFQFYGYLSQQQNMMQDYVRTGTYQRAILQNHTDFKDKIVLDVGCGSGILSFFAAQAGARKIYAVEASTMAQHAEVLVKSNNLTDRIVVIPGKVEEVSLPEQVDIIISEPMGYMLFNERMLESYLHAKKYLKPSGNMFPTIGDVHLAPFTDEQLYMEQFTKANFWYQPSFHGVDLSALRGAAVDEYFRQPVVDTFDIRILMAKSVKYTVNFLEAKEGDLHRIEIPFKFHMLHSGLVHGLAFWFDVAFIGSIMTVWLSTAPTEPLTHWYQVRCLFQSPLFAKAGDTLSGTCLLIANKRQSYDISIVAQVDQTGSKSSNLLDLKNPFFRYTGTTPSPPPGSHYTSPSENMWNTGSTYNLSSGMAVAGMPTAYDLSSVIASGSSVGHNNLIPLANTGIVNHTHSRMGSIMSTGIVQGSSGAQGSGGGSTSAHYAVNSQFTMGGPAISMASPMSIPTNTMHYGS
property: IC50 (µM)
Report the figure in µM without appending any unit label.

Query: Please tell me: IC50 of N#Cc1ccc(Nc2ncnc(Nc3ccc(C(=N)N)cc3)c2[N+](=O)[O-])cc1 , system Histone-arginine methyltransferase CARM1 (Homo sapiens, UniProt Q86X55)?
Response: 10
